Recorded normalised cell number, one value per entry.
- experimental details: differential killing of epithelial or mesenchymal cells, primary screen, imaging, PC-3E GFP, TEM4-18 mCherry, co-culture (AID 1345086);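 further: cells exposed to compound for 72 h before imaging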
- details: imaging cell counts, measured here: epithelial PC-3E GFP cell survival, at 1 µM
Numbered stars: 1 amine (or outer) side, 2 acyl side, 3 side chain; on linkers, the order of the positions; unused ones are H or OH. Bridge positions count the residues as written; N and C are the ends. Square brackets hold non-standard residues; d marks the D form. Peptide text beside a SMILES is read from it. * marks the point of attachment. ξ: configuration not given here. ΔAla(E,3-NHCONH2) = NC(=O)N/C=C(/N)C(=O)O; X1 = NC1=NCCC(C(N[*:1])C(=O)[*:2])N1; ξβ3hOrn = NCCCC(N)CC(=O)*; Dap = NC[CH](N)C(=O)O
property name: normalised cell number

>>> recorded_number("O=C(O)c1ccccc1-c1c2cc(I)c(=O)c(I)c-2oc2c(I)c(O)c(I)cc12")
0.98
>>> recorded_number("COc1c(O)cc2c(c1O)C(=O)O[C@@H](C)[C@@H]2O")
1.01
>>> recorded_number("CCCCCCCCCCCCC[N+](C)(C)Cc1ccccc1")
0.83
>>> recorded_number("CCCCC[C@H](CC(=O)NO)C(=O)N[C@H](C(=O)N1CCC[C@H]1CO)C(C)C")
1.02
>>> recorded_number("CCCCCCCCCCCC[C@H](C(=O)O)[C@@H](C)C(=O)O")
0.84
>>> recorded_number("C=CCCCCCCCCC(=O)[O-].C=CCCCCCCCCC(=O)[O-].[Zn+2]")
0.98
>>> recorded_number("CN1C2CCCC1CC(NC(=O)c1nn(C)c3ccccc13)C2 (stereo not given)")
0.99
>>> recorded_number("CC1=C(C(=O)O)N2C(=O)[C@@H](NC(=O)[C@H](N)C3=CCC=CC3)C2SC1 (stereo not given in full)")
1.13
>>> recorded_number("CC(=O)OCC(=O)[C@@]1(OC(C)=O)[C@@H](C)CC2C3C[C@H](F)C4=CC(=O)C=C[C@]4(C)[C@@]3(F)[C@@H](O)C[C@@]21C (stereo not given in full)")
1.13
>>> recorded_number("Nc1ncnc2c1ncn2C1O[C@H](COP(=O)(O)O)[C@@H](O)[C@H]1O (stereo not given in full)")
1.18
>>> recorded_number("CC(=O)Oc1cc(OC(C)=O)c2c(c1)O[C@H](c1ccc(OC(C)=O)c(OC(C)=O)c1)[C@@H](OC(C)=O)C2")
0.98
>>> recorded_number("NCCCC(N)CC(=O)NCC1NC(=O)C(CO)NC(=O)C(N)CNC(=O)C(C2CCN=C(N)N2)NC(=O)/C(=C\\NC(N)=O)NC1=O (stereo not drawn) (H-[Dap]S[Dap](ξβ3hOrn)[ΔAla(E,3-NHCONH2)][X1]; lactam 1-C; configuration not given here)")
1.11
>>> recorded_number("CO[C@H]1CC(O[C@@H]2/C(C)=C/C[C@@H]3C[C@@H](C[C@]4(C=C[C@H](C)[C@@H](C5CCCCC5)O4)O3)OC(=O)[C@@H]3C=C(C)[C@@H](O)C4OC/C(=C\\C=C\\[C@@H]2C)[C@]43O)O[C@@H](C)C1O[C@H]1C[C@H](OC)[C@@H](O)[C@H](C)O1 (stereo not given in full)")
1.06
>>> recorded_number("CC1(C)C2CCC1(CS(=O)(=O)O)C(=O)/C2=C\\c1ccc(/C=C2\\C(=O)C3(CS(=O)(=O)O)CCC2C3(C)C)cc1")
1.44
>>> recorded_number("CC1(C)C2CC[C@]3(C)C(C(=O)C=C4[C@H]5C[C@@](C)(C(=O)O)CC[C@]5(C)CC[C@]43C)[C@@]2(C)CC[C@@H]1O (stereo not given in full)")
1.03
>>> recorded_number("CCOC(=O)OC(C)OC(=O)C1N2C(=O)C(NC(=O)[C@H](N)c3ccccc3)C2SC1(C)C (stereo not given in full)")
1.07
>>> recorded_number("COC1=N[C@@](OC)(C(C)C)C(=O)N[C@@]1(O)[C@H](O)c1ccccc1")
1.21
>>> recorded_number("COC(=O)CCC(C)[C@H]1CCC2C3C(C[C@H](O)[C@@]21C)[C@@]1(C)CC[C@@H](O)C[C@H]1C[C@H]3O (stereo not given in full)")
0.89
>>> recorded_number("CCCCCCCCCCCCCCCC(=O)OCC(O)[C@H]1OC(=O)C(O)=C1O (stereo not given in full)")
1.1
>>> recorded_number("COc1cc(O)c2c(c1)C(=O)C1=C(C2=O)C(OC)OC1 (stereo not given)")
0.9

====

- system: Calcium-activated potassium channel subunit alpha-1 (Homo sapiens) + Leucine-rich repeat-containing protein 26 (Homo sapiens) (UniProt Q12791+Q2I0M4)
- Sequence (Q2I0M4 whole entry, looked up, one chain of several): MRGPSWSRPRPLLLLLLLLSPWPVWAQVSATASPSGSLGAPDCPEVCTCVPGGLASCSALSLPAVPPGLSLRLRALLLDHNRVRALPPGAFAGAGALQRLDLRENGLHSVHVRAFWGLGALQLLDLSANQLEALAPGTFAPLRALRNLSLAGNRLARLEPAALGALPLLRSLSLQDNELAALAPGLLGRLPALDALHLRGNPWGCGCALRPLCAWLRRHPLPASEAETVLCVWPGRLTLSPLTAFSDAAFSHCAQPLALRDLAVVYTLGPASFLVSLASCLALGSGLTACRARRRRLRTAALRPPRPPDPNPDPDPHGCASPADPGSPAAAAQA
- experimental details: modulators of BK channel variants, profiling panel, selectivity assay, cell-based, U2OS BacMam, thallium flux, beta subunits (AID 1259406);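 further: initial slope of Thallos dye fluorescence rise after thallium is added; log ratio against the mean of 0.3% DMSO vehicle wells on the same plate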
- details: F380Y/Slo1WT/gamma1, at 30 µM
Calls of active or inactive are those of the source.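 Rule for the calls: active = thallium flux through the channel raised or lowered by more than 3 SD from vehicle-only wells, actives on both sides; inactive = the rest.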
Labels: active, inactive

>>> cat("COc1nc(C)nc(Cl)c1NC1=NCCN1")
"inactive"
>>> cat("CCOC(=O)[C@@H](CCc1ccccc1)N[C@@H](C)C(=O)N1CCC[C@H]1C(=O)O")
"inactive"
>>> cat("O=C(O)CC1(CC(=O)Nc2cccc3nsnc23)CCCCC1")
"inactive"
>>> cat("COC(=O)c1ccc(C=Cc2cccc(Cl)c2)s1")
"active"
>>> cat("COCc1cc(=O)[nH]c(SCC(=O)c2ccc(-c3ccccc3)cc2)n1")
"inactive"
>>> cat("CS(=O)(=O)NNc1c(Cl)cc(Cl)cc1Cl")
"inactive"
>>> cat("CN1CCN(CC(=O)Nc2ccccc2Oc2ccccc2)CC1")
"inactive"
>>> cat("Cc1ccc(S(N)(=O)=O)c(I)c1")
"inactive"
>>> cat("O=c1[nH]c2ccccc2c2ccccc12")
"inactive"
>>> cat("CON=C(C(=O)N[C@@H]1C(=O)N2C(C(=O)O)=C(COC(N)=O)CS[C@H]12)c1ccco1")
"inactive"
>>> cat("CCc1[nH]c(=S)[nH]c(=O)c1C#N")
"inactive"
>>> cat("C#CC1(NC(=O)c2ccc(-c3ccc(CC)cc3)cc2)CCCCC1")
"inactive"

====

- experimental details: growth inhibition of DIPG glioma cells, dose response, cell-based, SU-DIPG-XVII, MIPE5.0, CellTiter-Glo, qHTS (AID 1347060);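 on AC50: cells exposed to compound for 48 hours before viability readout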
- details: SU-DIPG-XVII viability, CellTiter-Glo ATP luminescence
Results filed as inconclusive are left out. Calls of active or inactive are those of the source. No cut-off is given here; in the data, nearly all actives have AC50 up to about 26 µM.
Labels: 1 (active), -1 (inactive)

>>> cat("CS(=O)c1ccc(-c2nc(-c3ccc(F)cc3)c(-c3ccncc3)[nH]2)cc1 (stereo unspecified)")
-1
>>> cat("N#Cc1c(O)c2c(-c3ccc(-c4ccccc4O)cc3)csc2[nH]c1=O")
-1
>>> cat("CCc1c2c(nc3ccc(O)cc13)-c1cc3c(c(=O)n1C2)COC(=O)[C@]3(O)CC")
1
>>> cat("O=C1NC(=O)C(c2ccccc2[N+](=O)[O-])=C1Nc1ccc(O)c(Cl)c1")
-1
>>> cat("CCN(CC)CCCC(C)Nc1nc(C)cc(Nc2ccc3nc(C)cc(N)c3c2)n1 (stereo unspecified)")
-1
>>> cat("COc1cc([C@@H]2c3cc4c(cc3[C@@H](O[C@@H]3O[C@@H]5CO[C@@H](C)O[C@H]5[C@H](O)[C@H]3O)[C@H]3COC(=O)[C@H]23)OCO4)cc(OC)c1O")
1

====

- system: L-lactate dehydrogenase (Plasmodium falciparum (isolate CDC / Honduras)) (UniProt Q27743)
- Sequence (Q27743 whole entry, looked up): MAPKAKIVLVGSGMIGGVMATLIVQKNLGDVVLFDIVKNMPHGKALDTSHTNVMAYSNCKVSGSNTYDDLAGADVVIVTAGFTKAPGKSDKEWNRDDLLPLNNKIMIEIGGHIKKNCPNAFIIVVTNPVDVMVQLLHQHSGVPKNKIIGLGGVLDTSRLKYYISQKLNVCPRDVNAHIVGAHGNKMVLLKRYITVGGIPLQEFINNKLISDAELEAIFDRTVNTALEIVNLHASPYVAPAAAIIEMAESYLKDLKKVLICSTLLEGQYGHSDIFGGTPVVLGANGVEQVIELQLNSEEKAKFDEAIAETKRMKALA
- experimental details: PfLDH activity inhibition – cell lysate, 3D7 strain, counter-screen for P. falciparum growth inhibition project (AID 2304);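 further: 0% = vehicle and 100% = reference inhibitor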
- details: P. falciparum 3D7 crude extract, LDH APAD/NBT absorbance; at 2 µM; stronger effect = higher value
Recorded inhibition, one value per entry.
property name: inhibition (%)

>>> recorded_number("CS(=O)(=O)NCCCNCc1ccc(-c2ccc(-c3nc4ccc(F)cc4[nH]3)cc2)cc1")
-1
>>> recorded_number("CC(CNC(=O)[C@H]1CNCCN1C(=O)CCCc1ccccc1)c1ccccc1 (stereo partly specified)")
3
>>> recorded_number("CCNC(=O)Nc1ccc(-c2cnc(N)c(-c3nc4ccc(OC)cc4[nH]3)c2)cc1")
1
>>> recorded_number("CCn1c(-c2nonc2N)nc2c(-c3cccc(NC(=O)NCc4ccccc4)c3)ncc(OCCCN)c21")
-7
>>> recorded_number("CCCCNCc1ccc(-c2nc(CN(Cc3ccc(Cl)c(Cl)c3)C(=O)CN(C)C)cs2)cc1")
7
>>> recorded_number("Cc1c(C)c2c(c(C)c1O)CCC(C)(CCC(=O)O)O2 (stereo unspecified)")
0
>>> recorded_number("CC(C)CC1(C(=O)OC(C)(C)C)CC(C(=O)OC(C)(C)C)C(c2cccs2)N1C(=O)c1ccc(C(C)(C)C)cc1 (stereo unspecified)")
-2
>>> recorded_number("CCC(CC)n1cc2c(ccc3nc(N)nc(N)c32)n1")
4
>>> recorded_number("CS(=O)(=O)Nc1cccc(-c2cnc3[nH]cc(-c4ccc(CN)cc4)c3c2)c1")
2
>>> recorded_number("O=c1[nH]ccc2nc(N[C@@H]3CCNC3)nc(Nc3ccc4c(c3)S(=O)(=O)CC4)c12")
-2
>>> recorded_number("CC(C)(CNC(=O)[C@@H]1CCCCN1)c1nc(-c2ccc(Cl)c(O)c2)c(-c2ccncc2)[nH]1")
-10
